biological target: PAK4 (human); assay: radiometric filter-binding kinase assay; conditions: compound 1.0 µM
endpoint name: residual activity (%)

Known results for compounds:
{"compound structure": "COc1cc2ncn(-c3cc(OCc4ccccc4S(C)(=O)=O)c(C#N)s3)c2cc1OC", "endpoint name": "residual activity", "observed result": 53}
{"compound structure": "c1ccc2c(-c3cnn4cc(-c5ccc(N6CCNCC6)cc5)cnc34)ccnc2c1", "endpoint name": "residual activity", "observed result": 94}
{"compound structure": "CN1C(=O)[C@@H](Cc2c[nH]c3ccccc23)NC1=S", "endpoint name": "residual activity", "observed result": 95}

P. Cc1ccc(Sc2cnc(Nc3cccc(Br)n3)s2)cc1C(=O)N1CCN(C(=O)CN)CC1
Q. Cn1c(=O)c2c(ncn2C)n(C)c1=O
Of P versus Q , which is the one with smaller reported residual activity? Respond with the label that goes with your answer.
P
